Ref: ChEMBL document CHEMBL4765319

- System: Plasmodium falciparum
- assay_details: Inhibition of Plasmodium falciparum GSK3 assessed as residual activity at 10 uM in presence of ATP by ADP-glo luminescent assay relative to control
measured_endpoint: Activity (%)

query: Return reported Activity; argument: CN1CC=C(c2c(O)cc(O)c3c(=O)cc(-c4ccc(Sc5nc6ccccc6[nH]5)cc4)oc23)CC1
result: 54

query: Return reported Activity; argument: CN1CC[C@H](c2c(O)cc(O)c3c(=O)cc(-c4ccccc4Cl)oc23)[C@H](O)C1
result: 70

query: Return reported Activity; argument: CN1CC=C(c2c(O)cc(O)c3c(=O)cc(-c4ccc(Sc5nc6ccccc6n5C)cc4)oc23)CC1
result: 79

query: Return reported Activity; argument: CN1CC=C(c2c(O)cc(O)c3c(=O)cc(-c4ccc(Sc5nc6ccccc6n5C)cc4Cl)oc23)CC1
result: 46

query: Return reported Activity; argument: CN1CC=C(c2c(O)cc(O)c3c(=O)cc(-c4ccc(Sc5nc6ccccc6[nH]5)cc4Cl)oc23)CC1
result: 64
